Target: Cytochrome P450 2D6 (Homo sapiens)
Experiment: Cytochrome P450 family 2 subfamily D member 6 (CYP2D6) small molecule antagonists: luciferase biochemical (cell-free) qHTS assay (AID 1645840); further: nearly all actives have a fitted effect of over 55% in size
Conditions: P450-Glo CYP2D6 enzyme, luciferin luminescence, 1 h; series mostly up to 57.4 µM
Inconclusive results are not listed. The source made the active and inactive calls. The call rests on the fitted dose curve; in most records, active means well fitted inhibition curve with a large enough effect in the repeat runs; inconclusive means weak or mixed curves; inactive means flat fitted curve, though single readings scatter.
Labels: YES = active, NO = inactive

- molecule: "Oc1cccc(C2NC(=S)Nc3cccc(F)c32)c1 (stereo not given)"
  discrete.label: "YES"
- molecule: "NS(=O)(=O)Nc1ncnc(OCCOc2ncc(Br)cn2)c1-c1ccc(Br)cc1"
  discrete.label: "NO"
- molecule: "COC(=O)c1ccc2c(c1)[nH]c1ncnc(NCCCN3CCCCC3)c12"
  discrete.label: "NO"
- molecule: "COc1cc(N(C)CCN(C)C)c(N)cc1Nc1nccc(-c2cn(C)c3ccccc23)n1"
  discrete.label: "YES"
- molecule: "O=c1[nH]c([C@@H]2CCCN2)nc2c1oc1ccc(Cl)cc12"
  discrete.label: "NO"
- molecule: "C=CC(=O)Nc1cc(-n2c(=O)ccc3cnc4ccc(-c5ccc(NS(C)(=O)=O)cc5)cc4c32)ccc1C"
  discrete.label: "NO"
- molecule: "O=C(NC1CCC1)c1ccc(C#Cc2cccc(F)c2)nc1"
  discrete.label: "NO"
- molecule: "COc1ccccc1N1CCN(c2ncnc3n[nH]c(Br)c23)CC1"
  discrete.label: "NO"
- molecule: "COC1CCN(C(=O)c2cc(Cc3n[nH]c(=O)c4ccccc34)ccc2F)CC1"
  discrete.label: "NO"
- molecule: "O=C(Nc1ccc2[nH]c(=O)oc2c1)C(=O)N1CCC(Cc2ccc(F)cc2)CC1"
  discrete.label: "YES"
